These data points were gathered from patent EP2402371A1.

- Measured On: extracellular domain of human GPVI (human) (UniProt Q9HCN6)
- Test Description: SPR (Biacore 3000), human GPVI immobilised by amine coupling, Fab as analyte
Metric: koff (s⁻¹)
Write the number in s⁻¹ without appending the unit.

Data request: Param item = humanized anti-GPVI Fab VL1/VH3 (Fab, V domains shown) VH: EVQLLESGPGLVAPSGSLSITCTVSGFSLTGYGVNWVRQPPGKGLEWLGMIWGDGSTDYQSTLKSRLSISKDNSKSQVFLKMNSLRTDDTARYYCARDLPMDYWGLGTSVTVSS VL: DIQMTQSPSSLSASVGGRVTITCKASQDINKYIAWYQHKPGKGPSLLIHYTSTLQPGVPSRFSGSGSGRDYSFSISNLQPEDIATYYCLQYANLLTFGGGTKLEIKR ; retrieve measured koff.
Data returned: 2e-05
